# credit: ChEMBL document CHEMBL1201862

This section presents molecules with their documented GI50 values.
Tested on: UACC-62
Protocol summary: NCI tumour cell line growth inhibition, 48 h
The source made the active and inactive calls. Cut-off read from the data, not from the text of the source: active = GI50 up to about 1.1 µM and inactive = higher.
Observable: GI50

| Smiles entry | Observable | Test value |
| --- | --- | --- |
| COc1cc(-c2n[nH]cc2CCCC(=O)Nc2ccccc2[N+](=O)[O-])ccc1O | GI50 | 67.9 µM (inactive) |
| COC(=O)C1=C(O)c2cc(-c3ccccc3)c(-c3ccccc3)c(C#N)c2NC(=O)C1 | GI50 | 3.97 µM (inactive) |
| O=C1CCC(=O)N2CCCCN12 | GI50 | > 100 µM (inactive) |
| COCCCNC(=O)CC(=O)NCCCOC | GI50 | > 100 µM (inactive) |
| O=C1NC(=S)N(c2ccccc2)C1=O | GI50 | > 100 µM (inactive) |
| Cc1ccc(S(=O)(=O)OCCN(CCOS(=O)(=O)c2ccc(C)cc2)c2ccc(C=O)cc2)cc1 | GI50 | 20 µM (inactive) |

---

Tested on: UO-31
Protocol summary: NCI tumour cell line growth inhibition, 48 h
Activity calls are given as the source filed them. Cut-off read from the data, not from the text of the source: active = GI50 up to about 1.1 µM and inactive = higher.
Observable: GI50

| Compound | Observable | Test value |
| --- | --- | --- |
| N#Cc1nc(C2OC(COC(=O)c3ccccc3)C(OC(=O)c3ccccc3)C2OC(=O)c2ccccc2)oc1N (stereo not given) | GI50 | 12 µM (inactive) |
| CN(C)CCCc1cccc2[nH]c3c(c12)CN(C)CC3 | GI50 | > 100 µM (inactive) |
| Cc1ccccc1/N=N/c1ccc(/N=N/c2c(O)ccc3cc(S(=O)(=O)O)cc(S(=O)(=O)O)c23)c(C)c1 | GI50 | > 100 µM (inactive) |
| C[n+]1ccc(Nc2ccc(NC(=O)c3ccc(Nc4cc[n+](C)c5ccc([N+](=O)[O-])cc45)cc3[N+](=O)[O-])cc2)cc1 | GI50 | 47.6 µM (inactive) |
| CSC(C1c2ccccc2N(c2ccc(C)cc2)C2=NC(=O)N(C)C(=O)C21Cl)S(=O)(=O)c1ccc(C)cc1 (stereo not given) | GI50 | 22.4 µM (inactive) |
| O=[N+]([O-])c1ccc2oc(=N/c3ccccc3)/c(=N\c3ccccc3)[nH]c2c1 | GI50 | 77.1 µM (inactive) |
| CCOC(=O)/C(Cl)=C(\C)Nc1nc2c(ccc3ccccc32)s1 | GI50 | > 100 µM (inactive) |
| CN(C)/N=C1\C=C2CC[C@H](O[Si](C)(C)C(C)(C)C)[C@@]2(C)CC1 | GI50 | 16.3 µM (inactive) |
| Clc1ccc(C2C3COc4ccccc4C3=NN2c2ccccc2)cc1 (stereo not given) | GI50 | > 100 µM (inactive) |
| Cc1nnc(N/N=C2/C(=O)Nc3ccccc32)nc1O | GI50 | > 100 µM (inactive) |
| COc1ccc(C(c2ccccc2C(=O)O)c2ccc(OC)c3ccccc23)c2ccccc12 | GI50 | 4.9 µM (inactive) |
| COCCCNC(=O)CC(=O)NCCCOC | GI50 | > 100 µM (inactive) |
| COc1cc2c(cc1OC)CCc1cc(OC)c(OC)cc1CC2 | GI50 | > 100 µM (inactive) |
| NC(=O)c1csc(C2C=CC(CO)O2)n1 (stereo not given) | GI50 | > 100 µM (inactive) |
| CCOC(=O)C(C(=O)Cc1ccccc1)c1ccccc1 (stereo not given) | GI50 | > 100 µM (inactive) |
| C/C1=C\CC[C@@]2(C)O[C@@H]2C[C@@H]2[C@H](C/C(C)=C/CC1)OC(=O)C21CC1 | GI50 | 92.3 µM (inactive) |
| c1ccc2c(c1)Cc1c(Cc3csc4ccccc34)ccc3cccc-2c13 | GI50 | > 100 µM (inactive) |
| CC1=NN(C(=O)CC(=O)Nc2ccc(C)cc2)C(=O)C1/N=N\c1ccc(S(=O)(=O)c2ccc(/N=N/C3C(=O)N(C(=O)CC(=O)Nc4ccc(C)cc4)N=C3C)cc2)cc1 (stereo not given) | GI50 | > 100 µM (inactive) |
| CCCc1n[nH]c(CCC(=O)N(Cc2ccccc2)Cc2ccccc2)c1CC | GI50 | > 100 µM (inactive) |
| COc1cc(C=C2C(C)=NN(c3cccc(Cl)c3)C23SCC(=O)N3c2nc3ccccc3s2)ccc1O (stereo not given) | GI50 | 30.6 µM (inactive) |
